target: GlcNAc(b1-2)[GlcNAc(b1-6)]Man(a1-6)[GlcNAc(b1-2)Man(a1-3)]Man(b1-4)GlcNAc(b1-4)GlcNAc
method summary: glycan array binding signal (z-score within array); higher = stronger binding
particulars: glycan notation: IUPAC condensed, linker removed
The full list was thinned out, with the strongest signals kept by preference.
Returns Criterion met if the recorded glycan array binding signal (z-score) is greater than or equal to 5, and Criterion not met otherwise.

### Prompt Threshold query (glycan array binding signal (z-score) >= 5) on Mermaid2 (Stilbonema majum) (protein) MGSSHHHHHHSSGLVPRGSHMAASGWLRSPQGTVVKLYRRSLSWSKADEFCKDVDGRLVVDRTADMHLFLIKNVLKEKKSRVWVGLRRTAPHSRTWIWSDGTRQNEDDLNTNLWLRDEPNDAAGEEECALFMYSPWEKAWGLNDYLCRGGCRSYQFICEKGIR
### Response Criterion not met

### Prompt Try the binder LSECtin (Homo sapiens), Q6UXB4 (protein) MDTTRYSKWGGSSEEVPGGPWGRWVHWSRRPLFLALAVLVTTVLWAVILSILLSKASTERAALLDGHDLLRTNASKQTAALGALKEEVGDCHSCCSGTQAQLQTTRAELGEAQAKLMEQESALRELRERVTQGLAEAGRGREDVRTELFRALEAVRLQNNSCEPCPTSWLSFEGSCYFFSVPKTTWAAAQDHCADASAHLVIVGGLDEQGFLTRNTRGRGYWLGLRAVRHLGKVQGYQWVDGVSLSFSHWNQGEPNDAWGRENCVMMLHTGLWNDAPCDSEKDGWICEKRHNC
### Response Criterion met

### Prompt // next record UEA-I (Ulex europaeus), P22972 (protein) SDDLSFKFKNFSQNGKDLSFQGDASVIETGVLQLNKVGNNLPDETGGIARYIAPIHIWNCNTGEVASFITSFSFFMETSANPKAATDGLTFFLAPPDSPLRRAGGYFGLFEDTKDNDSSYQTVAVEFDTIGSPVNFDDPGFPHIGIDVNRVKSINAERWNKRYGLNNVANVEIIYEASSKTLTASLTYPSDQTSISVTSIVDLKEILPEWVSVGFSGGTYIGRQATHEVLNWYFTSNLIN
### Response Criterion not met

### Prompt Lookup XTP3-B-MRH2 (Homo sapiens), Q96DZ1 (protein) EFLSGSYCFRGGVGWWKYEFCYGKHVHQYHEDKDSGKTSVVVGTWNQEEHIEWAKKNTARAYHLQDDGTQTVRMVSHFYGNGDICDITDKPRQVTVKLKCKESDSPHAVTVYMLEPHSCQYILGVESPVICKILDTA
### Response Criterion not met
